Data origin, for the record: patent US20240165244A1

target.of.assay: SMARCA4 (Homo sapiens, UniProt P51532)
Construct: SMARCA4-HiBiT knock-in Hela monoclonal cell (CS3023226); host or cells: HeLa monoclonal cells with heterozygous HiBiT knock-in at the endogenous SMARCA4 locus
Sequence (P51532 whole entry): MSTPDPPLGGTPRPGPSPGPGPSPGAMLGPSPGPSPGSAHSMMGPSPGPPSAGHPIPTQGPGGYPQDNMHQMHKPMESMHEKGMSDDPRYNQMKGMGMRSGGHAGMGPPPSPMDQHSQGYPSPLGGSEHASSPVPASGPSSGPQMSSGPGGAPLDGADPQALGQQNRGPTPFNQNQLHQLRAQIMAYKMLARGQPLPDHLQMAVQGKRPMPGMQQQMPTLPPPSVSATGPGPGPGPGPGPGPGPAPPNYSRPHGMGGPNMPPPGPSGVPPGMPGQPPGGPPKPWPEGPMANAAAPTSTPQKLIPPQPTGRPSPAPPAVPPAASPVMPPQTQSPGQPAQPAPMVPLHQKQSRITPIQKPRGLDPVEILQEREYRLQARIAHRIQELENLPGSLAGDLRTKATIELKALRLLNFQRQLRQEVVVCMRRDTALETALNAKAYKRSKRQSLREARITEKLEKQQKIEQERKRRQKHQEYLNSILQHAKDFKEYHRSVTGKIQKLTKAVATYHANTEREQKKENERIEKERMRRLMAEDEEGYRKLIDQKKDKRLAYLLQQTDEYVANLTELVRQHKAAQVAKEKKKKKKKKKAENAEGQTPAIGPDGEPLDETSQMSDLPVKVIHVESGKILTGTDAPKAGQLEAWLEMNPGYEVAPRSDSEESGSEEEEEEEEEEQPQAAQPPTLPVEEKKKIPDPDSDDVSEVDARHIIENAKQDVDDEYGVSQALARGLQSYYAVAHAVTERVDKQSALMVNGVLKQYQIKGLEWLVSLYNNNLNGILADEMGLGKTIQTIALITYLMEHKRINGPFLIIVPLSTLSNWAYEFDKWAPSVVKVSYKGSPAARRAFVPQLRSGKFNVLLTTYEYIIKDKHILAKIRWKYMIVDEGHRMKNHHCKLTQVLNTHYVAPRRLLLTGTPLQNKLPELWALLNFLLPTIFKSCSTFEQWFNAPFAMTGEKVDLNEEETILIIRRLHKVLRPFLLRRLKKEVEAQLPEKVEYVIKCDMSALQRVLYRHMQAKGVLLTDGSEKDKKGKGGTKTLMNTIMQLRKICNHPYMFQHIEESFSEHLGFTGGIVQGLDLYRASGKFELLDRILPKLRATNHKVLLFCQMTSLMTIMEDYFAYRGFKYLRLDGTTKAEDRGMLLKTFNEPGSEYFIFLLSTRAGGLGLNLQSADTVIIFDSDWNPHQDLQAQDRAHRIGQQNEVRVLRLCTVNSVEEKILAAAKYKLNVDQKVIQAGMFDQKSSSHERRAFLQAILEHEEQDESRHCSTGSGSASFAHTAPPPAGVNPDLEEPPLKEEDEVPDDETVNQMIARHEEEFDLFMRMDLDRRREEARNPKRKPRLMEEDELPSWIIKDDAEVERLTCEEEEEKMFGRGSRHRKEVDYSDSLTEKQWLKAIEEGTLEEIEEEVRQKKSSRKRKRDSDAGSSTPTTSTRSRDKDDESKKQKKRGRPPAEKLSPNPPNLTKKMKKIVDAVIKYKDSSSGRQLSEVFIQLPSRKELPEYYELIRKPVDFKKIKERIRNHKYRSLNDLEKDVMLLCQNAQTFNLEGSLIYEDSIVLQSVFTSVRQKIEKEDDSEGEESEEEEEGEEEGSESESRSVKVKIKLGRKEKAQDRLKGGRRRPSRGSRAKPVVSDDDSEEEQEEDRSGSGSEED
procedure.details: SMARCA4 HiBiT degradation assay in HeLa cells
Format: cell-based
test.settings: 18 hours, highest concentration 10 μM
Protocol: SMARCA2 HiBiT and SMARCA4 HiBiT Degradation Assay HiBiT peptide knock-in of SMARCA2 in LgBiT expressing HEK293T cells was performed by CRISPR-mediated tagging system as described Promega. […] SMARCA2-HiBiT knock-in Hela monoclonal cell (CS302366) and SMARCA4-HiBiT knock-in Hela monoclonal cell (CS3023226) were purchased from Promega. SMARCA2 HiBiT and SMARCA4 HiBiT Degradation Assay in HeLa Cells […]
recorded.endpoint: Dmax

Observe how each entry below is paired with its result.
# molecule, target.of.assay, test.value
records = [
    ("Cc1cc(O[C@@H]2C[C@@H]3CNc4nnc(-c5cccc(C)c5O)cc4N3C2)ccc1CN1CCN(c2ccc3c(c2)C(=O)N(C2CCC(=O)NC2=O)C3)CC1 (some centres unmarked) [Example 20]", "SMARCA4 (Homo sapiens, UniProt P51532)", "< 50%"),
    ("O=C1CCC(N2Cc3ccc(N4CCN(Cc5cnc(O[C@H]6CN7c8cc(-c9cccc(F)c9O)nnc8NC[C@@]7(C(F)F)C6)c(F)c5)CC4)cc3C2=O)C(=O)N1 (some centres unmarked) [Example 84]", "SMARCA4 (Homo sapiens, UniProt P51532)", "< 50%"),
    ("Cc1cc(O[C@H]2CN3c4cc(-c5cccc(F)c5O)nnc4NC[C@@]3(C)C2)cnc1CN1CCN(c2ccc3c(c2)C(=O)N([C@H]2CCC(=O)NC2=O)C3)CC1 [Example 81]", "SMARCA4 (Homo sapiens, UniProt P51532)", "< 50%"),
    ("Cc1cc(CN2CCN(c3ccc4c(c3)C(=O)N([C@H]3CCC(=O)NC3=O)C4)CC2)cnc1O[C@H]1CN2c3cc(-c4cccc(F)c4O)nnc3NC[C@]2(C)C1 [Example 83]", "SMARCA4 (Homo sapiens, UniProt P51532)", "> 75%"),
    ("C[C@]12CNc3nnc(-c4cccc(F)c4O)cc3N1C[C@H](Oc1cc(C#N)c(CN3CCN(c4ccc5c(c4)C(=O)N([C@H]4CCC(=O)NC4=O)C5)CC3)cn1)C2 [Example 76]", "SMARCA4 (Homo sapiens, UniProt P51532)", "> 75%"),
]

Please look at the following molecule next.
In: Consider the molecule Cc1cc(CN2CCC(c3ccc4c(c3)C(=O)N([C@H]3CCC(=O)NC3=O)C4)CC2)ncc1O[C@H]1CN2c3cc(-c4cccc(C)c4O)nnc3NC[C@]2(C(F)F)C1 [Example 94] and give its recorded Dmax.
Out: < 50%
